# System: pERK in NCI-H1435 cells (NF-1 mutant)
# Method Notes: pERK inhibition in NF-1 mutant NCI-H1435 cells (Example F)
# Format: cell-based
# Test Context: NCI-H1435, 1 h, read-out: IC50, pERK inhibition
Binning scheme for IC50: lower band: < 30 nM; central band: ≥ 30 nM and < 60 nM; upper band: ≥ 60 nM

Answered cases to consult:
Compound: Cc1c([C@@H](C)Nc2nnc(C)c3ccc(OC4CNC4)cc23)cccc1C(F)(F)F [Example 7-4]
Measured Target: pERK in NCI-H1435 cells (NF-1 mutant)
Label: upper band

Compound: Cc1nnc(N[C@H](C)c2cc(N)cc(C(F)(F)F)c2)c2cc(N3CCOCC3)ccc12 [Example 6-5]
Measured Target: pERK in NCI-H1435 cells (NF-1 mutant)
Label: lower band

Compound: CNCc1ccccc1-c1ccc([C@@H](C)Nc2nnc(C)c3ccc(N4CCOCC4)cc23)s1 [Example 6-3]
Measured Target: pERK in NCI-H1435 cells (NF-1 mutant)
Label: lower band

Compound: Cc1c([C@@H](C)Nc2nnc(C)c3ccc(N4CCn5nccc5C4)cc23)cccc1C(F)(F)F [Example 6-10]
Measured Target: pERK in NCI-H1435 cells (NF-1 mutant)
Label: upper band

Compound: Cc1c([C@@H](C)Nc2nnc(C)c3ccc(N4CCN(c5cnn(C)c5)CC4)cc23)cccc1C(F)(F)F [Example 10-10]
Measured Target: pERK in NCI-H1435 cells (NF-1 mutant)
Label: lower band

Challenge: Lab note: which band did Cc1c([C@@H](C)Nc2nnc(C)c3ccc(N4CCOC[C@@H]4C)cc23)cccc1C(F)(F)F [Example 10-6] land in?
Response given: upper band

Challenge: Quick check: band for Cc1c(C(F)F)cccc1[C@@H](C)Nc1nnc(C)c2ccc(N3CCNCC3)cc12 [Example 10-4]
Response given: central band

Challenge: Lab note: sort Cc1c([C@@H](C)Nc2nnc(C)c3ccc(N4CCN(C(=O)C5CC5)CC4)cc23)cccc1C(F)(F)F [Example 6-11] into the matching IC50 band.
Response given: upper band

Challenge: Which bin should I file CNC1CCN(c2ccc3c(C)nnc(N[C@H](C)c4cccc(C(F)(F)F)c4C)c3c2)CC1 [Example 10-7] under?
Response given: upper band

Challenge: Hi, small favor: classify Cc1c([C@@H](C)Nc2nnc(C)c3ccc(N4CCN(C(=O)C5COC5)CC4)cc23)cccc1C(F)(F)F [Example 11-1] by its IC50 when you get a moment.
Response given: lower band

Challenge: Lab note: sort Cc1c([C@@H](C)Nc2nnc(C)c3cnc(N4CCNCC4)cc23)cccc1C(F)(F)F [Example 6-9] into the matching IC50 band.
Response given: central band

Challenge: # classify by IC50 band: Cc1nc(C)n2c1CN(c1ccc3c(C)nnc(N[C@H](C)c4cccc(C(F)(F)F)c4C)c3c1)CC2 [Example 10-11]
Response given: upper band

* * *

# Tested on: pERK in MKN1 cells
# Method Notes: cells
# Format: cell-based
# Test Context: Homo sapiens, MKN-1
Structures can show the parent of a compound that is named as a salt.
IC50 strictly under 70 nM means TRUE; at 70 nM or over means FALSE.

Take a look at these entries with their results.
Compound: Cc1c(C#N)cccc1[C@@H](C)Nc1nnc(C)c2ccc(N3C[C@H]4C[C@@H]3CO4)cc12 [Example 10-54, Formate salt]
Label: TRUE
--
Compound: Cc1c([C@@H](C)Nc2nnc(C)c3ccc(N4CCC(C)(N(C)C)CC4)cc23)cccc1C(F)(F)F [Example 10-42, hydrochloride salt]
Label: TRUE
--
Compound: Cc1c(C#N)cccc1[C@@H](C)Nc1nnc(C)c2ccc(N3CCNCC3)cc12 [Example 10-55, Formate salt]
Label: FALSE

Challenge: Just wondering, is IC50 of Cc1c(C#N)cccc1[C@@H](C)Nc1nnc(C)c2ccc(N3CC(N(C)C)C3)cc12 [Example 10-75, Hydrochloride salt] below 70 nM?
Response given: TRUE

Challenge: Does this compound meet the criterion IC50 < 70 nM? Cc1c(C(F)F)cccc1[C@@H](C)Nc1nnc(C)c2ccc(N3CCOCC3)cc12 [Example 10-65, Hydrochloride salt]
Response given: TRUE

Challenge: Check if IC50 falls below 70 nM for Cc1c([C@@H](C)Nc2nnc(C)c3ccc(N4CCNC[C@H](F)C4)cc23)cccc1C(F)(F)F [Example 10-62, Hydrochloride salt] .
Response given: FALSE

Challenge: Hello, is IC50 of the following compound strictly smaller than 70 nM? Cc1c(C#N)cccc1[C@@H](C)Nc1nnc(C)c2ccc(N3CC(C)(N(C)C)C3)cc12 [Example 10-74, Hydrochloride salt]
Response given: TRUE

Challenge: Lab note: confirm whether the reported IC50 for this compound is below 70 nM, equality not counting. compound: Cc1nnc(N[C@H](C)c2ccc(F)cc2Cl)c2cc(N3CCOCC3)ccc12 [Example 10-59, Hydrochloride salt]
Response given: FALSE

Reference source: patent US11702418B2
